Test system: MCF7
Assay comment: Cytotoxicity against human MCF7 cells
Format: functional
Assay setup: read-out: ED50 (the source's name)
I'd be grateful if you could share measured EC50 for these entries.

Name the recorded EC50 for COc1ccc([C@H]2COc3c(ccc4c3C=CC(C)(CCC=C(C)C)O4)C2)c(O)c1O (some centres not stated) .
3.5 µg/mL

Look up EC50 for this compound: CC1(C)C=Cc2c(cc3c(c2O)C(=O)[C@@H](c2cc4c(cc2O)OCO4)CO3)O1
> 5 µg/mL

GET /values?readout=EC50&item= CC1(C)C=Cc2c(ccc3c2OCC(c2cc4c(cc2O)OCO4)C3)O1 (configuration not stated)
> 5 µg/mL

May I ask what EC50 has been recorded for C=C(CO)[C@H]1Cc2c(ccc3c2O[C@@H]2COc4cc(OC)c(OC)cc4[C@]2(O)C3=O)O1 ?
13.1 µg/mL

Item CC1(C)C=Cc2c(ccc3c2OCC2c4cc5c(cc4OC32)OCO5)O1 (configuration not stated) has what recorded EC50?
> 5 µg/mL

// query EC50 value for entry COc1ccc([C@H]2COc3cc4c(c(O)c3C2=O)C=CC(C)(CCC=C(C)C)O4)c(O)c1O (some centres not stated)
> 5 µg/mL

Recorded EC50 for CC1(C)C=Cc2c(c(O)cc3c2OCC(c2cc4c(cc2O)OCO4)C3)O1 (configuration not stated) , please?
> 5 µg/mL

// returns reported EC50 for input COc1ccc([C@H]2COc3c4c(cc(O)c3C2=O)OC(C)(CCC=C(C)C)C=C4)c(O)c1O (some centres not stated)
3.6 µg/mL

EC50 for CC(C)=CCCC1(C)C=Cc2c(ccc3c2OCC(c2cc4c(cc2O)OCO4)C3)O1 (configuration not stated) ?
> 5 µg/mL

Report EC50 for CC1(C)C=Cc2c(c(O)cc3c2OC[C@@H]2c4cc5c(cc4O[C@H]32)OCO5)O1 please.
> 5 µg/mL

Suppose we examine the compound CC1(C)C=Cc2c(cc(O)c3c2OCC(c2cc4c(cc2O)OCO4)C3=O)O1 (racemic) ; what EC50 value has been reported?
> 5 µg/mL

May I ask what EC50 has been recorded for C=C(CO)[C@H]1Cc2c(ccc3c2O[C@@H]2COc4cc(OC)c(OC)cc4[C@@H]2C3=O)O1 ?
> 20 µg/mL

Recorded values, source ChEMBL document CHEMBL1158116.
